# Assay target: UniProt O75582
# Sequence (O75582 whole entry, looked up): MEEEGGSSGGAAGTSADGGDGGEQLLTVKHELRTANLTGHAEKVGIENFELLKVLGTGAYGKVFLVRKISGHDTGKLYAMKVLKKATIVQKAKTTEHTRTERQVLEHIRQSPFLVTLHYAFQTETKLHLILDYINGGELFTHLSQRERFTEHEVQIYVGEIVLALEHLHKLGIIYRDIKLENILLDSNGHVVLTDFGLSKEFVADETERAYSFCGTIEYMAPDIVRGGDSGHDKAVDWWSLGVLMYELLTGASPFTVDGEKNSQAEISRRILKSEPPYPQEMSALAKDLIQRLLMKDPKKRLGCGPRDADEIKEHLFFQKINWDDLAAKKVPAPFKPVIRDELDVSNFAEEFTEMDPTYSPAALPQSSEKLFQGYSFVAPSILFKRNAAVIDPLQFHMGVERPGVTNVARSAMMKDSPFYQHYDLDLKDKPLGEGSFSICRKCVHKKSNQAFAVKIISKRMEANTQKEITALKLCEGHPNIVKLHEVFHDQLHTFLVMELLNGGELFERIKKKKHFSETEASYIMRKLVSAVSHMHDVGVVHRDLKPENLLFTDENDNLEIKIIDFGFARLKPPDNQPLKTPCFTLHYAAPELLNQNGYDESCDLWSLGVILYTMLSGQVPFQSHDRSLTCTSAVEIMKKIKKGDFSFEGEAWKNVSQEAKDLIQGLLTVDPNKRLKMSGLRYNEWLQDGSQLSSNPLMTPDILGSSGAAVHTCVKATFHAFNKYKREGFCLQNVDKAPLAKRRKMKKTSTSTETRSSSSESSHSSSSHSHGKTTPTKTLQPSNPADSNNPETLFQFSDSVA
# Method summary: radiometric filter-binding kinase assay
# Condition info: compound 0.01 µM
Measured parameter: residual activity (%)
Number in %, nothing else.

Consider the following illustrative entries.
• CNc1nc(-c2ccc3c(N)n[nH]c3c2)cc(N2C[C@@H](C(=O)NC3CCCCC3)CC[C@H]2C)n1 = 102
• COc1ccc(N(C(=O)Nc2c(C)cccc2C)c2cc(Nc3ccc(N4CCN(C)CC4)cc3)ncn2)c(OC)c1 = 104
• O=C(Nc1nc2cc(C(F)(F)F)cc(NC3CC3)n2n1)c1cccnc1 = 114
• C/C(=C1/C(=O)Nc2ccc(NC(N)=O)cc21)c1ccc[nH]1 = 87
• CNC(=O)C1[C@H]2O[C@@](C)([C@@H]1N)n1c3ccccc3c3c4c(c5c6ccccc6n2c5c31)C(=O)NC4 (stereo partly specified) = 41

Name the reported residual activity value associated with the compound COc1cc(O)c2c(c1)[C@H]1OC1C[C@H](O)[C@H](O)C(=O)/C=C\C[C@H](C)OC2=O (stereo partly specified) 108
